- methodNotes: Cytotoxicity in MDCK cells by the MTT assay
- measurementSetup: dog
endpointName: viability at 3.9 µg/mL (%)

compound=C[C@@H]1O[C@@H](OC[C@H]2O[C@@H](Oc3c(-c4ccc(O)cc4)oc4cc(O)cc(O)c4c3=O)[C@H](O)[C@@H](O)[C@H]2O)[C@H](O)[C@H](O)[C@H]1O endpointname="viability at 3.9 µg/mL" numericreadout=95.6
compound=C[C@@H]1O[C@@H](OC[C@H]2O[C@@H](Oc3c(-c4ccc(O)c(O)c4)oc4cc(O)cc(O)c4c3=O)[C@H](O)[C@@H](O)[C@@H]2O)[C@H](O)[C@H](O)[C@H]1O endpointname="viability at 3.9 µg/mL" numericreadout=99.3
compound="C[C@@H]1O[C@@H](OC[C@H]2O[C@@H](Oc3c(-c4ccc(O)cc4)oc4cc(O)cc(O)c4c3=O)[C@H](O)[C@@H](O)[C@@H]2O)[C@H](O)[C@H](O)[C@H]1O [Compound 2, kaempferol 3-O-rutinoside]" endpointname="viability at 3.9 µg/mL" numericreadout=98.1

Origin of values: paper PMC8701318
